- method: NCI Yeast Anticancer Drug Screen. Data for the bub3 strain (AID 167)
- cond: S. cerevisiae bub3 mutant strain, at 50.0 µM, active compounds read high
This is part of a sample that, as a whole, favours compounds with a hit. Of some 79,000 tested, about 15% had one in any assay.
Task for the reader: assign each of the following molecules its reported growth inhibition.
Answers are plain numbers, in %.

Query block: Fill in the blank: the reported growth inhibition of `O=c1cc(-c2ccc(Cl)cc2)oc2cc(OCCCOc3ccc4c(=O)cc(-c5ccc(Cl)cc5)oc4c3)ccc12` is ____.
Result block: 19.9

Query block: Field request: growth inhibition | item: `CC(C)c1ccc(/C=C2\CCC/C(=C\c3ccc(C(C)C)cc3)C2=O)cc1`
Result block: -20.4

Query block: So what's the measured growth inhibition for this one? `Cn1c(N)c(C(=O)/C=C/c2ccccc2)c(=O)n(C)c1=O`
Result block: -3.85

Query block: What value of growth inhibition has been recorded for this entry: `COc1ccccc1NC(=O)/C(=C\n1c(=S)[nH]c2ccc([N+](=O)[O-])cc21)C(C)=O`
Result block: 4.95

Query block: Consider the molecule shown here: `[Cl][Pt+2][Cl].[NH-]C1CCC1.[NH2-]` What is its recorded growth inhibition?
Result block: -16.1

Query block: Which growth inhibition value belongs to CN(C(=O)C1C2c3ccccc3C(c3ccccc32)C1C(=O)N(C)c1ccccc1)c1ccccc1 (stereo not given) ?
Result block: 1.1

Query block: For the molecule `NC(=O)c1[nH]c(COCCO)nc1N` , what growth inhibition is on record?
Result block: 7.05

Query block: Recorded growth inhibition of `CC[Si](CC)(CC)[Si](c1ccccc1)(c1ccccc1)c1ccccc1` , please.
Result block: -17.4

I would be grateful if you could provide growth inhibition for each of the following entries.
1. c1ccc(C2c3ccccc3-c3ncnc(N4CCCCC4)c32)cc1 (stereo not given)
2. Nc1ccc(C(=O)NN2C(=O)C(Cl)C2c2cccc(O)c2)cc1 (stereo not given)

Result block:
-0.45
4.3

----------
- method: NCI Yeast Anticancer Drug Screen. Data for the bub3 strain (AID 167)
- cond: S. cerevisiae bub3 mutant strain, at 50.0 µM, active compounds read high
This is part of a sample that, as a whole, favours compounds with a hit. Of some 79,000 tested, about 15% had one in any assay.
Consider the following molecules; for each one, report its growth inhibition.
Numbers only, in %.

Worked examples, 10 molecules total:
Query block: What measured growth inhibition goes with `COc1ccc(-n2c(N)c(C#N)c(C#N)c2-c2cccc([N+](=O)[O-])c2)cc1` ?
Result block: -18.9

Query block: Which growth inhibition is listed for `O=C1C=C(Oc2ccccc2)C(=O)C=C1Oc1ccccc1` ?
Result block: 14.3

Query block: Requested field: growth inhibition. Item: `COc1ccccc1C(=O)C(CN(C)C)CN(C)C`
Result block: -23.3

Query block: // query growth inhibition value for entry `O=c1oc2ccc(Br)cc2cc1CCS`
Result block: 9.55

Query block: Quick one: growth inhibition of CCOC(=O)N1C=Cc2ccccc2C1C(=N)N (stereo unspecified) ?
Result block: -6.3

Query block: # get_value(readout='growth inhibition', item= O=C(OC1(c2nccc3ccccc23)CCCN(Cc2ccccc2)C1)c1ccccc1 (stereo unspecified) )
Result block: -1.4

Query block: I have this molecule here, `O=c1ccc2cc3c(cc2[nH]1)OCO3` , and I need its recorded growth inhibition.
Result block: -9.2

Query block: Given the entry `O=C(Cc1ccccc1)NC(=O)Nc1ccccc1` , report its measured growth inhibition.
Result block: -3.1

Query block: Item `CCO[C@H]1OC(=O)[C@@H]2C(c3ccc(F)cc3)=NO[C@H]12` has what recorded growth inhibition?
Result block: 8.95

Query block: Quick one: growth inhibition for COC(=O)C(Cc1ccccc1)NCCN (stereo unspecified) ?
Result block: -5.95

Further cases:
Query block: Need growth inhibition of O=C(c1ccc(Cl)c(Cl)c1)C(CS(=O)(=O)O)CS(=O)(=O)O (tested in a mixture with another compound) , thanks.
Result block: -4.8

----------
- method: NCI Yeast Anticancer Drug Screen. Data for the sgs1 mgt1 strain (AID 161);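 note: 0% = growth of cultures given vehicle only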
- cond: S. cerevisiae sgs1 mgt1 strain, at 50.0 µM, active compounds read high
Compounds without any hit were thinned out: in the full panel of roughly 79,000, 15% have a hit.
Assign growth inhibition to each entry below.
Answers are plain numbers, in %.

Query block: Using the record for CC(NCCOc1ccccc1)c1ccccc1 (stereo unspecified) , report its growth inhibition.
Result block: 3.2

Return reported growth inhibition values for all items listed beneath this line.
1. C=CC1CC1(Cl)Cl (stereo unspecified)
2. C[N+](C)(C)CCCCCc1c2nc(c(CCCCC[N+](C)(C)C)c3ccc([nH]3)c(CCCCC[N+](C)(C)C)c3ccc([nH]3)c(CCCCC[N+](C)(C)C)c3nc1C=C3)C=C2
3. O=C1OC2(CC1n1cnc3ccccc3c1=O)C(=O)Nc1ccccc12 (stereo unspecified)

Result block:
1. -4.75
2. 10
3. 8.5

----------
- method: NCI Yeast Anticancer Drug Screen. Data for the mlh1 rad18 strain (AID 175)
- cond: S. cerevisiae mlh1 rad18 strain growth inhibition; at 50.0 µM
Compounds without any hit were thinned out: in the full panel of roughly 79,000, 15% have a hit. Calls of active or inactive are those of the source. No stated cut-off is given here; in the data, active means growth inhibition above about 70%; inactive means the rest.
The categories you may choose from are Yes = active, No = inactive

Sample answers from the record:
Query block: Per the assay record, what outcome was assigned to `O=C(CN1CCOCC1)CC(O)(C(F)(F)F)C(F)(F)F` ?
Result block: Yes

Query block: Tell me the assay call for `CCOC(=O)C1=C(Nc2cccc3ccccc23)OC/C1=N\NC(=O)c1ccccc1O` please.
Result block: No

Query block: Record lookup: outcome of this test for `CCN(CC)CCNc1ccc(C)c2sc3ccc(N)cc3c(=O)c12` ?
Result block: No

Query block: Lab log entry: CC(=O)OC(C)C(=O)C1c2cccc(O)c2C(=O)c2c(O)cc(C)cc21 (centres undefined) — outcome as called in the assay?
Result block: No

Query block: Call for entry `CC(C)(c1ccc(C(=O)O)cc1)c1ccc(C(=O)O)cc1` :
Result block: No

More entries:
Query block: Fill in: this test's call for `Cc1cc(=O)oc2c1ccc1occc(=O)c12` is ___
Result block: No

Query block: Call for entry CC1OC(O[C@@H]2OC=C(C=O)[C@@]3(O)CC[C@H](C)[C@@H]23)C(O)C(O)C1O (some centres undefined) :
Result block: No

Query block: Answer briefly: the call reported for `Nc1ccc(S(=O)(=O)NC(=O)NCc2ccccc2)cc1` in this assay.
Result block: No

Query block: Hi, sorry to bother you, what did the test record for `N#CCCCCN1CCCCC1` ?
Result block: No

Query block: Please let me know the test result on file for `O=CNC1(c2ccccc2)CCCCC1` .
Result block: No

Query block: Name the outcome recorded for CN1N=C2c3ccccc3OC(c3ccccc3)[C@H]2C1c1ccccc1 (some centres undefined) in the assay.
Result block: No

Query block: Would you mind telling me which call this test gave `CCc1onc(-c2noc(CC)c2C)c1C` ?
Result block: No

Query block: Hi, do you know how `COC(=O)c1cc(C)c(C(=O)O)c(C)c1` came out in this test?
Result block: No

Query block: For CCOC(=O)C1C(C)NC(C)C(C(=O)OCC)C1C (centres undefined) , which call appears in the assay record?
Result block: No

Query block: I would be grateful if you could indicate the recorded call for `COC(=O)[C@@H]1CCC(/C(C#N)=C2/CC[C@@H](C(=O)OC)N2)=N1` .
Result block: No

Query block: # outcome recorded in this test, key = COC(=O)CNC(=O)C(Cc1ccccc1)NC(=O)OCc1ccccc1 (centres undefined)
Result block: No

Query block: Could you please tell me the result logged for `COc1ccc(/C=c2/s/c(=C(\C#N)c3nc4ccccc4[nH]3)n(-c3ccccc3)c2=O)cc1` in this assay?
Result block: No

Query block: I'd appreciate the recorded outcome for `Nc1ccncn1` from this test.
Result block: No

----------
- method: NCI Yeast Anticancer Drug Screen. Data for the cln2 rad14 strain (AID 165);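 note: 0% = growth equal to vehicle treated cultures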
- cond: S. cerevisiae cln2 rad14 strain, at 50.0 µM, active compounds read high
About 79,000 compounds went through this panel and 15% of them were active in at least one assay; those are over-represented in the sample as a whole.
parameter: growth inhibition (%)
One number for each entry, in %.

Examples from the recorded data:
Query block: Recorded growth inhibition for `O=c1cc(-c2ccc(Cl)cc2)oc2cc(OCCCOc3ccc4c(=O)cc(-c5ccc(Cl)cc5)oc4c3)ccc12` , please?
Result block: -33.1

Query block: Looking for the measured growth inhibition of `O=C(NC(Cc1c[nH]c2ccccc12)(C(=O)O)C(=O)O)OCc1ccccc1` , can you help?
Result block: 29.1

Query block: Given the compound `c1ccc(Nc2ccc3ccccc3n2)cc1` , what is its reported growth inhibition?
Result block: 14

For each listed entry, give its growth inhibition.
1. Nc1ccc2[nH]c(=O)c(=O)[nH]c2c1
2. COc1ccc(NC(=O)NNS(=O)(=O)c2ccc(C)cc2)cc1
3. O=c1c(=[n+]2ccc(=C([O-])c3ccccc3)cc2)/c(=N/S(=O)(=O)c2ccccc2)c(=O)c2ccccc12
4. Cc1n(C)nn[n+]1C

Result block:
4.95
4.9
7
-24.1

Look at each compound and report its growth inhibition.
1. O=C1C(=C(c2ccccc2)N2CCCCC2)C(=O)c2ccccc21
2. CN1CC(c2ccccc2)=Cc2c1ccc(N)c2N=N

Result block:
1. -7.75
2. 15.6

// each listed compound needs a value for growth inhibition
1. Nc1cc(S(=O)(=O)O)cc2ccc(S(=O)(=O)O)cc12
2. CN(CCCn1ccnc1[N+](=O)[O-])CCCn1ccnc1[N+](=O)[O-]
3. CCCCCCCC(=O)Oc1c(Cl)c(Cl)c(C#N)c(Cl)c1C#N
4. CC(=O)OCC(CO)(CO)COC(C)=O
5. COc1ccc(C2=C/C(=C/c3ccc(N(CCC#N)CCC#N)cc3)C(=O)O2)cc1
6. N=C(N)SCC(=O)c1ccc([N+](=O)[O-])cc1
7. CCOc1ccccc1NC(=O)C1CCCCC1C(=O)O (centres undefined)
8. CN1CCCn2c(nc3ccccc3c2=O)C1

Result block:
1. -4.35
2. 3.85
3. 13.7
4. 7.45
5. -18.2
6. -0.4
7. 25.6
8. 14.5

Batch: growth inhibition for all items listed.
1. CC(CO)CCNc1ncnc2c1ncn2CCC#N (centres undefined)
2. CC(C)(C)C1CCC(O)(CSc2ccccc2)CC1 (centres undefined)
3. N#CCCOC(=O)Nc1ccccc1
4. COc1ccccc1Nc1n[nH]c(=S)s1

Result block:
1: -19.9; 2: -1.75; 3: -40.6; 4: 16.9

Below is a list of compounds. For each, state its recorded growth inhibition.
1. N#CC(C(=O)CCCC(=O)Nc1ccccc1[N+](=O)[O-])c1ccc(Cl)cc1Cl (centres undefined)
2. O=[N+]([O-])CC1(O)CCCCC1
3. COC(=O)/C=C(\C(=O)OC)C(C(=O)c1ccccc1)=P(c1ccccc1)(c1ccccc1)c1ccccc1

Result block:
1: -41.5; 2: 7.95; 3: -26.5
